- TARGET_DESC: β-tubulin (human (endogenous in VTC-001 and …, UniProt P07437 1-444))
- Sequence (P07437 whole entry): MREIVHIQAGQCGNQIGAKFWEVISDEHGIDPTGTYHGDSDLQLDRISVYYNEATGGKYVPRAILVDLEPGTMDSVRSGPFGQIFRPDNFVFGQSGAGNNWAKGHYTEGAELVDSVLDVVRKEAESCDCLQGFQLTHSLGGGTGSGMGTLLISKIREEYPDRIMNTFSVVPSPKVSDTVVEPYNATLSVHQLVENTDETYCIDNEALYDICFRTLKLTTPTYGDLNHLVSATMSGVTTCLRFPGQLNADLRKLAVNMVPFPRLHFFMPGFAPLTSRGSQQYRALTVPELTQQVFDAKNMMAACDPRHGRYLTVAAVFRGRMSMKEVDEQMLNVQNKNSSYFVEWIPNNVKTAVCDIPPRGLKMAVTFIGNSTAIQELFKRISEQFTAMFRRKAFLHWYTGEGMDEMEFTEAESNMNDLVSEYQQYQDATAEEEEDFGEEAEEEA
- ASSAY_NAME: cellular thermal shift assay (CETSA); fresh VTC-037 GSC lysates in non-denaturing buffer treated 1 h with 3-fold dilutions (222.2, 74.0, 24.7, 8.2 and 2.7 nM) of peptide, heat challenge at 57 °C for 20 min, centrifugation, immunoblot of the stable protein normalised to DMSO control; EC50 of target engagement
- EXPERIMENTAL_PARAMETERS: one partner purified
Ends that are not written are not given here. * marks the point of attachment. Biotin = O=C1N[C@H]2[C@H](CS[C@H]2CCCCC(=O)*)N1
VALUE_TYPE: EC50

# binder Biotin-RQPKIWFPNRRKPWKKGSDVFKRKFVDRKVG [JM2-scrambled peptide] ; its EC50 = > 200 nM
